tested on: HT-29; assay: Cytotoxicity against human HT29 cells after 48 hrs by SRB assay; assay type: functional, cell-based; conditions: Homo sapiens, HT-29, 48 h
MEASURED PARAMETER: GI50
Answer shape: numeric part, then the unit.

Prompt: Query the reported GI50 for HT-29; item: `C/C=C1\NC(=O)[C@H](Cc2ccccc2)NC(=O)[C@@H](C(C)C)NC(=O)[C@@H]([C@H](C)CC)NC(=O)[C@H](NC(=O)[C@H](NC(=O)[C@H](CCCN)NC(=O)[C@H]2CCCN2C(=O)[C@H](NC(=O)[C@@H](NC(=O)[C@@H](NC(=O)[C@H](NC(=O)CCCCCC)C(C)C)[C@@H](C)O)C(C)C)C(C)C)[C@H](C)CC)[C@H](C)OC(=O)[C@H](C(C)C)NC1=O`
Response: 499 nM

Prompt: // same read-out, input: `C/C=C1\NC(=O)[C@H](Cc2ccc(I)cc2)NC(=O)[C@@H](C(C)C)NC(=O)[C@@H]([C@H](C)CC)NC(=O)[C@H](NC(=O)[C@H](NC(=O)[C@H](CCCN)NC(=O)[C@H]2CCCN2C(=O)[C@H](NC(=O)[C@@H](NC(=O)[C@@H](NC(=O)[C@H](NC(=O)CC[C@@H](C)CC)C(C)C)[C@@H](C)O)C(C)C)C(C)C)[C@H](C)CC)[C@H](C)OC(=O)[C@H](C(C)C)NC1=O`
Response: 396 nM

Prompt: Please do the same for `C/C=C1\NC(=O)[C@H](Cc2ccccc2)NC(=O)[C@@H](C(C)C)NC(=O)[C@@H]([C@H](C)CC)NC(=O)[C@H](NC(=O)[C@H](NC(=O)[C@H](CCCN)NC(=O)[C@H]2CCCN2C(=O)[C@H](NC(=O)[C@@H](NC(=O)[C@@H](NC(=O)[C@@H](CC(C)C)NC(=O)CCCC(C)C)[C@@H](C)O)C(C)C)C(C)C)[C@H](C)CC)[C@H](C)OC(=O)[C@H](C(C)C)NC1=O` as well.
Response: 661 nM

Prompt: Then this compound: `C/C=C1\NC(=O)[C@H](Cc2ccccc2)NC(=O)[C@@H](C(C)C)NC(=O)[C@@H]([C@H](C)CC)NC(=O)[C@H](NC(=O)[C@H](NC(=O)[C@H](CCCN)NC(=O)[C@H]2CCCN2C(=O)[C@H](NC(=O)[C@H](CCC2CCCCC2)NC(=O)[C@@H](NC(=O)[C@H](NC(=O)CCCC(C)C)C(C)C)[C@@H](C)O)C(C)C)[C@H](C)CC)[C@H](C)OC(=O)[C@H](C(C)C)NC1=O`
Response: 235 nM

Prompt: One more compound: `C/C=C1\NC(=O)[C@H](Cc2ccccc2)NC(=O)[C@@H](C(C)C)NC(=O)[C@@H]([C@H](C)CC)NC(=O)[C@H](NC(=O)[C@H](NC(=O)[C@H](CCCN)NC(=O)[C@H]2CCCN2C(=O)[C@H](NC(=O)[C@@H](NC(=O)[C@@H](NC(=O)[C@@H](CCC(N)=O)NC(=O)CCCC(C)C)[C@@H](C)O)C(C)C)C(C)C)[C@H](C)CC)[C@H](C)OC(=O)[C@H](C(C)C)NC1=O`
Response: 2300 nM

Prompt: // next record `C/C=C1\NC(=O)[C@H](Cc2ccccc2)NC(=O)[C@@H](C(C)C)NC(=O)[C@@H]([C@H](C)CC)NC(=O)[C@H](NC(=O)[C@H](NC(=O)[C@H](CCCN)NC(=O)[C@H]2CCCN2C(=O)[C@H](NC(=O)[C@@H](NC(=O)[C@@H](NC(=O)[C@H](NC(=O)c2ccc3c(c2)OCO3)C(C)C)[C@@H](C)O)C(C)C)C(C)C)[C@H](C)CC)[C@H](C)OC(=O)[C@H](C(C)C)NC1=O`
Response: 413 nM

Prompt: Similarly, `C/C=C1\NC(=O)[C@H](Cc2ccccc2)NC(=O)[C@@H](C(C)C)NC(=O)[C@@H](C(C)C)NC(=O)[C@H](NC(=O)[C@H](NC(=O)[C@H](CCCN)NC(=O)[C@H]2CCCN2C(=O)[C@H](NC(=O)[C@@H](NC(=O)[C@@H](NC(=O)[C@H](NC(=O)CCCC(C)C)C(C)C)[C@@H](C)O)C(C)C)C(C)C)C(C)C)[C@H](C)OC(=O)[C@H](C(C)C)NC1=O` ?
Response: 2500 nM

Prompt: `C/C=C1\NC(=O)[C@H](Cc2ccc(Cl)cc2)NC(=O)[C@@H](C(C)C)NC(=O)[C@@H]([C@H](C)CC)NC(=O)[C@H](NC(=O)[C@H](NC(=O)[C@H](CCCN)NC(=O)[C@H]2CCCN2C(=O)[C@H](NC(=O)[C@@H](NC(=O)[C@@H](NC(=O)[C@H](NC(=O)CCCC(C)C)C(C)C)[C@@H](C)O)C(C)C)C(C)C)[C@H](C)CC)[C@H](C)OC(=O)[C@H](C(C)C)NC1=O` ?
Response: 36.5 nM

Prompt: Request: `C/C=C1\NC(=O)[C@H](Cc2ccccc2)NC(=O)[C@@H](C(C)C)NC(=O)[C@@H]([C@H](C)CC)NC(=O)[C@H](NC(=O)[C@H](NC(=O)[C@H](CCCN)NC(=O)[C@H]2CCCN2C(=O)[C@H](NC(=O)[C@@H](NC(=O)[C@@H](NC(=O)[C@@H](C)NC(=O)CCCC(C)C)[C@@H](C)O)C(C)C)C(C)C)[C@H](C)CC)[C@H](C)OC(=O)[C@H](C(C)C)NC1=O`
Response: 3030 nM

Prompt: And what about the compound `CC[C@@H](C)[C@@H](NC(=O)[C@H](CCCN)NC(=O)[C@H]1CCCN1C(=O)[C@H](NC(=O)[C@@H](NC(=O)[C@@H](NC(=O)[C@H](NC(=O)CCCC(C)C)C(C)C)[C@@H](C)O)C(C)C)C(C)C)C(=O)N[C@H]1C(=O)N[C@H]([C@H](C)CC)C(=O)N[C@H](C(C)C)C(=O)N[C@@H](Cc2ccccc2)C(=O)NCC(=O)N[C@@H](C(C)C)C(=O)O[C@H]1C` ?
Response: 2260 nM
